# SYSTEM UNDER TEST: TRPML1 (Homo sapiens, UniProt Q9GZU1)
# Sequence (Q9GZU1 whole entry L15A/L16A/L577A/L578A, form open): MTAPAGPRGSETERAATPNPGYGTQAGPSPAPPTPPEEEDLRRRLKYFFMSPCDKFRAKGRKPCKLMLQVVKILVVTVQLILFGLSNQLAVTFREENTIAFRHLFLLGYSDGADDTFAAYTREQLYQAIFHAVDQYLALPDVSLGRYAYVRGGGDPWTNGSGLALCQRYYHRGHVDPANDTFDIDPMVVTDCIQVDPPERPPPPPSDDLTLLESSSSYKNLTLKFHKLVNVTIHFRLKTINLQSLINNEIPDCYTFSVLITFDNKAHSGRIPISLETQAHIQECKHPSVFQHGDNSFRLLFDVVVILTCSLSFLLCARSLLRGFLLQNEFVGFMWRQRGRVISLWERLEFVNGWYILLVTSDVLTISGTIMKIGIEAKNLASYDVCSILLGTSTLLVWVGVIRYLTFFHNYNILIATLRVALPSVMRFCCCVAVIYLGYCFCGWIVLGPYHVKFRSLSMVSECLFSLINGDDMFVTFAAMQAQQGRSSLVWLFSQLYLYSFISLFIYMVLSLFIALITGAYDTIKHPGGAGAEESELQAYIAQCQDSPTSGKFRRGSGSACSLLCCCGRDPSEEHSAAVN
# TEST PROTOCOL: Fluorescent TRPML1 assay (Fluo4-AM calcium fluorescence in doxycycline-induced HEK-293 Trex cells)
# Type: cell-based
# EXPERIMENTAL CONDITIONS: fluorescent calcium assay
pEC50: −log10 of the molar value.
PARAMETER MEASURED: pEC50

C[C@@H]1CN(c2ncnc3c2c(-c2ccccc2F)cn3-c2cnn(C)c2)[C@@H](C)CN1C(=O)OC(C)(C)CF: > 7.00
C[C@H]1CN(C(=O)OC(C)(C)C)CCN1c1ncnc2c1c(-c1ccccc1F)cn2-c1cnnc(C#N)c1: > 7.00
CC(C)(C)OC(=O)N1CCN(c2ncnc3c2c(-c2ccccn2)cn3-c2ccc(F)c(Cl)c2)CC1: 6.30 to 7.00
N#Cc1ccnc(-n2cc(-c3ccccc3F)c3c(N4CCN(C(=O)OCC(F)(F)F)CC4)ncnc32)c1: 6.30 to 7.00
CCOC(=O)N1CCN(c2ncnc3c2c(C2CC2)cn3-c2cncc(C)c2)[C@@H](C)C1: < 5.70

Please supply the value of reported pEC50 for the item "C[C@H]1CCCN1c1cn(-c2cccc(Cl)c2)c2ncnc(N3CCN(C(=O)OC(C)(C)C)C[C@@H]3C)c12"
5.70 to 6.30

Supply measured pEC50 of "CCOC(=O)N1C[C@H](C)N(c2ncnc3c2c(-c2ccccc2F)cn3-c2cccnc2)C[C@H]1C" in your reply.
6.30 to 7.00

Name the recorded pEC50 of the compound listed here: "Cc1nccnc1-c1cn(-c2cc(F)cc(F)c2)c2ncnc(N3CCN(C(=O)OC(C)(C)C(F)(F)F)[C@H](C)C3)c12"
6.30 to 7.00

Respond only with pEC50 recorded for "Cc1cc(C#N)cc(-n2cc(-c3ccccc3F)c3c(N4CCN(C(=O)OC(C)(C)C)C[C@@H]4C)ncnc32)n1"
> 7.00

Give the measured pEC50 for "C[C@H]1CN(C(=O)OC(C)(C)C(F)(F)F)CCN1c1ncnc2c1c(-c1cncnc1)cn2-c1cccc(C#N)c1"
6.30 to 7.00

====

Item-by-item account of pEC50
# SYSTEM UNDER TEST: TRPML1 (Homo sapiens)
# TEST PROTOCOL: Fluorescent TRPML1 assay (Fluo4-AM calcium fluorescence in doxycycline-induced HEK-293 Trex cells)
# Assay type: cell-based
# EXPERIMENTAL CONDITIONS: fluorescent calcium assay
pEC50: −log10 of the molar value.

Look over these answered cases.
COc1cc(OC(F)(F)F)cc(-n2cc(C3CC3)c3c(N4CCN(C(=O)OC(C)(C)C)C[C@@H]4C)ncnc32)c1: 6.30 to 7.00
CC(C)(C)OC(=O)N1CCN(c2ncnc3c2c(-c2ccccc2F)cn3-c2cc(C#N)ccn2)CC1(C)C: > 7.00
C[C@@H]1CN(c2ncnc3c2c(N2CCC[C@H]2CO)cn3-c2cccc(Cl)c2)CCN1C(=O)OC(C)(C)C: < 5.70
C[C@H]1COCCN1c1cn(-c2cccc(C#N)c2)c2ncnc(N3CCN(C(=O)OC(C)(C)C)C[C@@H]3C)c12: 5.70 to 6.30

--- query ---
Determine from records and report pEC50 for "C[C@H]1CN(C(=O)OC(C)(C)C)CCN1c1ncnc2c1c(C1CC1)cn2C12CCC(CC1)CC2"
> 7.00

====

Items are presented alongside their recorded EC50.
# SYSTEM UNDER TEST: TRPML1 (Homo sapiens)
# TEST PROTOCOL: Fluorescent TRPML1 assay (Fluo4-AM calcium fluorescence in doxycycline-induced HEK-293 Trex cells)
# Type: cell-based
# EXPERIMENTAL CONDITIONS: fluorescent calcium assay

# count of solved cases: 5
C[C@H]1CN(C(=O)OC(C)(C)C(F)(F)F)CCN1c1ncnc2c1c(-c1ccccc1)cn2-c1cnn(C)c1: 100 to 500 nM
CCCOc1cn(-c2cc(C#N)ccn2)c2ncnc(N3CCN(C(=O)OC(C)(C)C)C[C@@H]3C)c12: < 100 nM
C[C@H]1CN(C(=O)OC(C)(C)C)CCN1c1ncnc2c1c(N1CCCC1)cn2-c1cccc(Cl)c1: < 100 nM
CC1CN(C(=O)OC(C)(C)C)CCN1c1nccc2c1c(-c1cnccn1)cn2-c1cccc(Cl)c1 (stereo not drawn): 500 to 2000 nM
C[C@H]1CN(C(=O)OC(C)(C)C)CCN1c1ncnc2c1c(C1CC1)cn2C1CCCC1: 100 to 500 nM

Given "C[C@H]1CN(C(=O)OC(C)(C)C)CCN1c1ncnc2c1c(C1(C)CC1)cn2-c1cc(C#N)ccn1" , respond with its EC50.
< 100 nM

====

# SYSTEM UNDER TEST: TRPML1 (Homo sapiens, UniProt Q9GZU1)
# TEST PROTOCOL: Fluorescent TRPML1 assay (Fluo4-AM calcium fluorescence in doxycycline-induced HEK-293 Trex cells)
# Format: cell-based
# EXPERIMENTAL CONDITIONS: fluorescent calcium assay
PARAMETER MEASURED: EC50

C[C@@H]1CN(c2ncnc3c2c(-c2cnccn2)cn3-c2cc(F)cc(F)c2)CCN1C(=O)OC(C)(C)C: 500 to 2000 nM
C[C@@H]1CN(c2ncnc3c2c(C2CC2)cn3-c2cccc(Cl)c2F)CCN1C(=O)OC(C)(C)C: < 100 nM
Cc1cn(-c2cc(F)ccn2)c2ncnc(N3C[C@@H](C)N(C(=O)OC(C)(C)C)C[C@@H]3C)c12: < 100 nM
CC(C)(C)OC(=O)N1CCN(c2ncnc3c2c(-c2ccccc2F)cn3-c2cc(C#N)ccn2)C(C)(C)C1: < 100 nM
C[C@H]1CN(C(=O)OC(C)(C)C)CCN1c1ncnc2c1c(N1CCCC1)cn2C1CCCC1: 100 to 500 nM
C[C@H]1CN(C(=O)OC(C)(C)C)CCN1c1ncnc2c1c(C1CC1)cn2[C@@H]1C[C@@H]2CC[C@H]1C2: < 100 nM
C[C@H]1CN(C(=O)OC(C)(C)C)CCN1c1ncnc2c1c(N1CCOCC1)cn2-c1cccc(C#N)c1: < 100 nM
Cc1nccnc1-c1cn(-c2cc(F)cc(F)c2)c2ncnc(N3CCN(C(=O)OC(C)(C)C)C[C@@H]3C)c12: 500 to 2000 nM
CC(C)(C)OC(=O)N1CCN(c2ncnc3c2c(C2CC2)cn3-c2cc(C#N)ccn2)C(C)(C)C1: 100 to 500 nM

Note: attention shifts to another entry.
Supply reported EC50 belonging to this compound: "C[C@H]1CN(C(=O)OC(C)(C)C)CCN1c1ncnc2c1c(C1CC1)cn2-c1cc(Cl)ccn1"
< 100 nM

====

Listed here: items and their measured pEC50.
# SYSTEM UNDER TEST: TRPML2 (Homo sapiens, UniProt Q8IZK6)
# Construct: expressed in transfected cells
# Sequence (Q8IZK6 whole entry): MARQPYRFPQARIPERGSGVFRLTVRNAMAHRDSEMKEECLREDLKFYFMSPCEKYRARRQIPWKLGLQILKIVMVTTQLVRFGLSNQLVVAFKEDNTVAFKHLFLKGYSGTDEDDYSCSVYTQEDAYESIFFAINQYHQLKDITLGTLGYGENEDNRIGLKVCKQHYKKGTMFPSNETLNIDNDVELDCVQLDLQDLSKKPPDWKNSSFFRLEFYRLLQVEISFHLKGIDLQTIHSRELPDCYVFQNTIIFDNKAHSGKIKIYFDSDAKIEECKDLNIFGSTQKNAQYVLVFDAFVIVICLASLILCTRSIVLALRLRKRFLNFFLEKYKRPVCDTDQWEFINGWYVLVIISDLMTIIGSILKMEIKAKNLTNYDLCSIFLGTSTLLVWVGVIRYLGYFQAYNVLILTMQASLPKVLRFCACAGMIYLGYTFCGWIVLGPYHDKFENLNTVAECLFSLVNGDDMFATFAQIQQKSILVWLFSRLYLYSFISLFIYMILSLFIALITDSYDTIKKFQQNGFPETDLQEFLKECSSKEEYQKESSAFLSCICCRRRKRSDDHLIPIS
# TEST PROTOCOL: Fluorescent TRPML2 assay (performed as for TRPML1, substituting the TRPML2 subtype)
# Assay type: cell-based
# EXPERIMENTAL CONDITIONS: fluorescent calcium assay
pEC50: −log10 of the molar value.

CCOC(=O)N1CCN(c2ncnc3c2c(-c2ccccc2F)cn3-c2cc(C#N)ccn2)[C@@H](C)C1: > 7.00
C[C@H]1CN(C(=O)OC(C)(C)C)CCN1c1ncnc2c1c(-c1ccccn1)cn2-c1cc(C#N)ccn1: > 7.00
C[C@H]1CN(C(=O)OC(C)(C)C)CCN1c1ncnc2c1c(N1CCCC1)cn2-c1cc(F)cc(F)c1: 6.30 to 7.00

Tell me measured pEC50 for "C[C@H]1COCCN1c1cn(-c2cccc(C#N)c2)c2ncnc(N3CCN(C(=O)OC(C)(C)C)C[C@@H]3C)c12" please.
< 5.70

Tell me pEC50 reported for CC(OC(=O)N1CCN(c2ncnc3c2c(-c2ccccc2F)cn3-c2cc(C#N)ccn2)[C@@H](C)C1)C(F)(F)F (some centres unmarked)
> 7.00

Return pEC50 for the following molecule: "C[C@@H]1CN(c2ncnc3c2c(C(F)(F)F)cn3-c2cc(C#N)ccn2)[C@@H](C)CN1C(=O)OC(C)(C)C"
> 7.00

Determine its reported pEC50: "C[C@@H]1CN(c2ncnc3c2c(C2CC2)cn3-c2cc(F)cc(F)c2)[C@@H](C)CN1C(=O)OC(C)(C)C"
5.70 to 6.30

Supply recorded pEC50 for "C[C@H]1CN(C(=O)OC(C)(C)C)CCN1c1ncnc2c1c(C1CC1)cn2-c1cc(Cl)cc(Cl)c1" here.
6.30 to 7.00

====

# SYSTEM UNDER TEST: TRPML2 (Homo sapiens, UniProt Q8IZK6)
# Construct: expressed in transfected cells
# TEST PROTOCOL: Fluorescent TRPML2 assay (performed as for TRPML1, substituting the TRPML2 subtype)
# Format: cell-based
# EXPERIMENTAL CONDITIONS: fluorescent calcium assay
PARAMETER MEASURED: EC50

Below, 8 compounds whose answers are already recorded.
CC1CN(C(=O)OC(C)(C)C)CCN1c1ncnc2c1c(C1CC1)cn2-c1cncc(Cl)c1 (stereo not shown): 100 to 500 nM
C[C@H]1CN(C(=O)OC(C)(C)C)CCN1c1ncnc2c1c(C1CCOCC1)cn2-c1cc(F)cc(F)c1: > 2000 nM
Cc1nccnc1-c1cn(-c2cc(F)cc(F)c2)c2ncnc(N3C[C@@H](C)N(C(=O)OC(C)(C)C)C[C@@H]3C)c12: 100 to 500 nM
C[C@H]1CN(C(=O)OC(C)(C)C)CCN1c1ncnc2c1c(C1(C)CC1)cn2-c1cc(C#N)ccn1: < 100 nM
C[C@@H]1CN(c2ncnc3c2c(-c2ccccn2)cn3-c2cc(F)cc(Cl)c2)CCN1C(=O)OC(C)(C)C: 100 to 500 nM
C[C@@H]1CN(c2ncnc3c2c(C2CC2)cn3-c2cc(F)cc(Cl)c2)CCN1C(=O)OC(C)(C)C: 100 to 500 nM
C[C@@H]1CN(c2ncnc3c2c(-c2ccccc2F)cn3-c2cnn(C)c2)[C@@H](C)CN1C(=O)OC(C)(C)CF: 500 to 2000 nM
C[C@@H]1CN(c2ncnc3c2c(-c2ccccc2F)cn3-c2ccccn2)[C@@H](C)CN1C(=O)OC(C)(C)C: 100 to 500 nM

Return value of EC50 for input C[C@H]1CN(C(=O)OC(C)(C)C)CCN1c1ncnc2c1c(C1CC1)cn2C1CCCOC1 (stereo partly shown) , no commentary.
> 2000 nM

# return recorded EC50 for entry "C[C@H]1CN(C(=O)OC(C)(C)C)CCN1c1ncnc2c1c(-c1ccccc1F)cn2-c1cc(C#N)cnn1"
< 100 nM

Quote EC50 reported for "Cc1nccnc1-c1cn(-c2cc(F)cc(F)c2)c2ncnc(N3CCN(C(=O)OC(C)C)C[C@@H]3C)c12" please.
> 2000 nM

Annotate the compound "C[C@@H]1CN(c2ncnc3c2c(C2CC2)cn3-c2cc(Cl)ccc2F)CCN1C(=O)OC(C)(C)C" with its measured EC50.
100 to 500 nM

Tell me its EC50 given "C[C@H]1CN(C(=O)OC(C)(C)C)CCN1c1ncnc2c1c(N1CCC[C@@H]1CO)cn2-c1cccc(Cl)c1" as the entry.
500 to 2000 nM
